Target: SMARCA2-HiBiT HeLa cells (protein which is expressed from the SMARCA2 gene) (Homo sapiens)
Construct: protein which is expressed from the SMARCA2 and SMARCA4 genes; host or cells: HeLa (SMARCA2-HiBiT engineered line)
Sequence (P51531 whole entry): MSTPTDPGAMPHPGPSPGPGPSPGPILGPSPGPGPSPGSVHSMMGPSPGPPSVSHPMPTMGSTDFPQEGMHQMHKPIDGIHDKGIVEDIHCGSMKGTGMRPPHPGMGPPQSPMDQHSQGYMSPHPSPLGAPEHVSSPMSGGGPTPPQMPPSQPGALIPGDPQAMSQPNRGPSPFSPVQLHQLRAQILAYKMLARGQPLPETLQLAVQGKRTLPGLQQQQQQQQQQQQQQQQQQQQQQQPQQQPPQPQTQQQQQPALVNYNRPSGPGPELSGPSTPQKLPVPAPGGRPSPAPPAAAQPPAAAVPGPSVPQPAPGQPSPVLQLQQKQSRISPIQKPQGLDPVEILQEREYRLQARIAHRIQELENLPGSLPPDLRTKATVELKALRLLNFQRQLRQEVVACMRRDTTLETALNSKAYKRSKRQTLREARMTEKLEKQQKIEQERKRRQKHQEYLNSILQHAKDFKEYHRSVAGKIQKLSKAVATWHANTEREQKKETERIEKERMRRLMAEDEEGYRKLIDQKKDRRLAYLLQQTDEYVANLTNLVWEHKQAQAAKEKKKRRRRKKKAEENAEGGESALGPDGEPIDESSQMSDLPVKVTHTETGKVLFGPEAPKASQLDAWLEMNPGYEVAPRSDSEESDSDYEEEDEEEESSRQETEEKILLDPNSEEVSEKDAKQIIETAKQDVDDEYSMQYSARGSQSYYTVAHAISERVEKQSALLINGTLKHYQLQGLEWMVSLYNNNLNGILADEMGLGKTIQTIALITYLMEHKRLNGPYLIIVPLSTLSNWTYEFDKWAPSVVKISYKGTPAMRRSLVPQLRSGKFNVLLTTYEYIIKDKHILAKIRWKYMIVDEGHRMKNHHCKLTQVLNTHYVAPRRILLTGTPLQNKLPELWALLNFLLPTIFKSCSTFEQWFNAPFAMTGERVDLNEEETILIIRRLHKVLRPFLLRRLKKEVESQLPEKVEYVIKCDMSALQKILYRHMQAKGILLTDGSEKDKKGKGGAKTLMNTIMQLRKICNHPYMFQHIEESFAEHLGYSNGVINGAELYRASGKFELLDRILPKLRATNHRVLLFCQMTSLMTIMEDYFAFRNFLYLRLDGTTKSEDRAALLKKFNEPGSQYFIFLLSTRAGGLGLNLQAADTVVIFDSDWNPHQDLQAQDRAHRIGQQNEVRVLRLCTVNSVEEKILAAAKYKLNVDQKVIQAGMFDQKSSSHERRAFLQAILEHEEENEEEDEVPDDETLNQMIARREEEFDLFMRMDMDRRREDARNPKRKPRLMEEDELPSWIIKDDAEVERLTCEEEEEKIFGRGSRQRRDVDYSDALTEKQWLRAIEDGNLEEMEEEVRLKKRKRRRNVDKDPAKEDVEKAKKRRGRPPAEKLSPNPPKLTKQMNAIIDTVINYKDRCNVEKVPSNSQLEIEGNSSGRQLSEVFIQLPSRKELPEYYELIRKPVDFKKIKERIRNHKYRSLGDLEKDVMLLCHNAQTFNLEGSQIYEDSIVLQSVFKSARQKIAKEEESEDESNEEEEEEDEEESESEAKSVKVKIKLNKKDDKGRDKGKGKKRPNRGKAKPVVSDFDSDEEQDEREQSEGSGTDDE
Assay: SMARCA2 degradation assay (HiBiT-fusion HeLa cell line, 24 h, luminescence)
Assay type: cell-based
readoutName: DC50

Answered cases to consult:
molecule	recordedValue
Nc1nnc(-c2ccccc2O)cc1N1CCC2(CCCN(c3ccnc(C#CCO)n3)C2)CC1	50 to 500 nM
CC1CCN(c2cc(-c3ccccc3O)nnc2N)CCN1c1ccnc(C#CCN)n1 (stereo not drawn)	500 to 5000 nM
C[C@@H]1CCN(c2cc(-c3ccccc3O)nnc2N)CCN1c1ccc(C#N)c(C#CCN2CC3CC2C3)n1	< 50 nM
C[C@@H]1CCC(=O)N1CC#Cc1ncc(F)c(N2CCN(c3cc(-c4ccccc4O)nnc3N)CC[C@H]2C)n1	50 to 500 nM
Nc1nnc(-c2ccccc2O)cc1N1C2CCC1CN(c1ccnc(C#CCN3CC4CC3C4)n1)C2	50 to 500 nM
C[C@@H]1CCN(c2cc(-c3ccccc3O)nnc2N)CCN1c1ccnc(/C=C/CO)n1	50 to 500 nM
C[C@@H]1CCN(c2cc(-c3ccccc3O)nnc2N)CCN1c1ccnc(C#CCN2CCC(F)(F)C2)n1	50 to 500 nM
Nc1nnc(-c2ccccc2O)cc1N1CC2CC(C1)N2c1ccnc(C#CCn2cncn2)n1	> 5000 nM

I have this molecule here, CC(C#Cc1nc(N2CCN(c3cc(-c4ccccc4O)nnc3N)CC[C@H]2C)ccc1C#N)N(C)C (stereo partly drawn) , and I need its recorded DC50. < 50 nM

I have this molecule here, CC1CC(C)N1CC#Cc1cc(N2CCN(c3cc(-c4ccccc4O)nnc3N)CC[C@H]2C)ccn1 (stereo partly drawn) , and I need its recorded DC50. < 50 nM

I have this molecule here, C[C@@H]1CCN(c2cc(-c3ccccc3O)nnc2N)CCN1c1ccnc(C#CCn2cccc2)n1 , and I need its recorded DC50. 50 to 500 nM

I have this molecule here, Nc1nnc(-c2ccccc2O)cc1N1CCCN(c2ccnc(C#CCNC(=O)NC3CC3)n2)CC1 , and I need its recorded DC50. 500 to 5000 nM

I have this molecule here, Nc1nnc(-c2ccccc2O)cc1N1CCCN(c2ccnc(C#CCNC(=O)NC3CCC3)n2)CC1 , and I need its recorded DC50. 500 to 5000 nM

I have this molecule here, C[C@@H]1CCN(c2cc(-c3ccccc3O)nnc2N)CCN1c1nc(C#CCN(C)C)ncc1F , and I need its recorded DC50. < 50 nM

---

Here, each record is paired with measured inhibition at 1 µM data.
Molecular target: SMARCA4-HiBiT HeLa cells (protein which is expressed from the SMARCA4 gene) (Homo sapiens, UniProt P51532)
Construct: protein which is expressed from the SMARCA2 and SMARCA4 genes; host or cells: HeLa (SMARCA4-HiBiT engineered line)
Sequence (P51532 whole entry): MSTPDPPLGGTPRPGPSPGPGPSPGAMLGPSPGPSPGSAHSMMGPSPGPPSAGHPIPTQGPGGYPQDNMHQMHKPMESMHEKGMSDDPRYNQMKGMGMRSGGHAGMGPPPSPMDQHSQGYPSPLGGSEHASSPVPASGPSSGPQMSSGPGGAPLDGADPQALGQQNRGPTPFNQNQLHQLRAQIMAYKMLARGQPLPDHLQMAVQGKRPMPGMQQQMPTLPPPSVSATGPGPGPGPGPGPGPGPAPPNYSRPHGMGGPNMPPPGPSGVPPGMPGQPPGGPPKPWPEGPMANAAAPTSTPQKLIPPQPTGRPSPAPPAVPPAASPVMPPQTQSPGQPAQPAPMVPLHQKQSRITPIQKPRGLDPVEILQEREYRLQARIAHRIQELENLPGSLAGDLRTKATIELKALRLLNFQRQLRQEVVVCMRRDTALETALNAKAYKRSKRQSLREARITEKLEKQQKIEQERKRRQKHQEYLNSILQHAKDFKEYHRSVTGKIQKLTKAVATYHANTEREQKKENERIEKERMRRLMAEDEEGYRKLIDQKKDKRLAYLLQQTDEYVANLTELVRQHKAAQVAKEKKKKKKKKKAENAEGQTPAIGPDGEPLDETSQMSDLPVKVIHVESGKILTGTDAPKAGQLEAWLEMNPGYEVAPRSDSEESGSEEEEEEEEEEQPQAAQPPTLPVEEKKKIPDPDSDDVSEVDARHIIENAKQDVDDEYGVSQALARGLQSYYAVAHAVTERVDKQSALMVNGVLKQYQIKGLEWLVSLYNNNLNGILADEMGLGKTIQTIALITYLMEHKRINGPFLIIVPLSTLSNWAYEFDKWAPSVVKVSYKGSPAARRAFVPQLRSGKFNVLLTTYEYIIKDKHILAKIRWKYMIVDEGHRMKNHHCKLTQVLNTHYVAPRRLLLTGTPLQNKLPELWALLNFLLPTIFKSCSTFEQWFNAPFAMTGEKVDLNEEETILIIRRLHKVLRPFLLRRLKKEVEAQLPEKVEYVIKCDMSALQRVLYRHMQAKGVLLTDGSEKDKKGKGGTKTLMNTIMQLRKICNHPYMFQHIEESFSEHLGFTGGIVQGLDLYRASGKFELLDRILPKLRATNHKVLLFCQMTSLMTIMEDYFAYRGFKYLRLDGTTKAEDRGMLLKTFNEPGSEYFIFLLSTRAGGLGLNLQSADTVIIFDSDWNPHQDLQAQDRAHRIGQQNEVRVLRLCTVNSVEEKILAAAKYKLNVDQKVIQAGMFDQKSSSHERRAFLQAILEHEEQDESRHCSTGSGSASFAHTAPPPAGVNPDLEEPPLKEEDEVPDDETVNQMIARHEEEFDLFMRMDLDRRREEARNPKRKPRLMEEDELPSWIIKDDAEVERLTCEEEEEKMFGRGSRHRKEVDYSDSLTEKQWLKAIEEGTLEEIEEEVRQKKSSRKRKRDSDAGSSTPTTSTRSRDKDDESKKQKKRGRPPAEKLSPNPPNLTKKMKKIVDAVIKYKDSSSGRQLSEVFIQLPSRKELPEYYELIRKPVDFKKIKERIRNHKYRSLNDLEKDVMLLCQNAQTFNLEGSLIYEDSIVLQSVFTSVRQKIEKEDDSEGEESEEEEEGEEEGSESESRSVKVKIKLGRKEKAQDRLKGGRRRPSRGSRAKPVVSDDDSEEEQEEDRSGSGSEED
Assay: SMARCA4 degradation assay (HiBiT-fusion HeLa cell line, 24 h, luminescence)
Assay type: cell-based
Conditions: @ 1 μM
Description: SMARCA2 and SMARCA4 Degradation Assay Degradation of protein which is expressed from the SMARCA2 and SMARCA4 genes was monitored using engineered HiBiT-fusion HeLa cell lines from Promega. […] 24-hours post-treatment, protein levels were quantified with the addition of HiBiT lytic buffer, LgBiT protein, and HiBiT substrate, according to manufacturer's specifications. […]

Answered cases to consult:
compound	inhibition at 1 µM
COCc1cc(N2CCCN(c3cc(-c4ccccc4O)nnc3N)CC2)nc(C#CCNC(=O)c2cc3ncccn3n2)n1	> 70%
Nc1nnc(-c2ccccc2O)cc1N1CCCN(c2ccnc(C#CC3CCOC3)n2)CC1 (stereo not shown)	30 to 70%
CC1CCN(c2cc(-c3ccccc3O)nnc2N)CCN1c1ccnc(C#CCN)n1 (stereo not shown)	< 30%
CC1CCN(c2ccnc(C#CCNC(=O)c3cc4ncccn4n3)n2)CCN1c1cc(-c2ccccc2O)nnc1N (stereo not shown)	30 to 70%
Nc1nnc(-c2ccccc2O)cc1N1CCCN(c2ccnc(C#CCn3ncc4ccncc43)n2)CC1	30 to 70%
C[C@@H]1CCN(c2cc(-c3ccccc3O)nnc2N)CCN1c1ccnc(C#CCN2CC[C@@H](F)C2)n1	< 30%

Now for the compound whose inhibition at 1 µM we want.
I have this compound here, CN(C)CC#Cc1ncc(F)c(N2C3CCC2CN(c2cc(-c4ccccc4O)nnc2N)C3)n1 , and I need its recorded inhibition at 1 µM. 30 to 70%

---

Target: SMARCA4-HiBiT HeLa cells (protein which is expressed from the SMARCA4 gene) (Homo sapiens)
Construct: protein which is expressed from the SMARCA2 and SMARCA4 genes; host or cells: HeLa (SMARCA4-HiBiT engineered line)
Assay: SMARCA4 degradation assay (HiBiT-fusion HeLa cell line, 24 h, luminescence)
Type: cell-based
Conditions: @ 1 μM
readoutName: inhibition at 1 µM

compound	inhibition at 1 µM
Nc1nnc(-c2ccccc2O)cc1-c1cnn(C2CN(c3ccnc(C#CCn4ccnc4)n3)C2)c1	30 to 70%
C[C@@H]1CCN(c2cc(-c3ccccc3O)nnc2N)CCN1c1ccnc(C#CC2CCCO2)n1 (stereo partly drawn)	< 30%
Nc1nnc(-c2ccccc2O)cc1N1CC2CCC(C1)N2c1ccnc(C#CCN2CC3CC2C3)n1	30 to 70%
C[C@@H]1CCN(c2cc(-c3ccccc3O)nnc2N)CCN1c1nc(C#CCN(C)C)ncc1F	< 30%

Report inhibition at 1 µM for COC/C=C/c1nccc(N2CCN(c3cc(-c4ccccc4O)nnc3N)CC[C@H]2C)n1 tested on SMARCA4-HiBiT HeLa cells (protein which is expressed from the SMARCA4 gene) (Homo sapiens). 30 to 70%

Report inhibition at 1 µM for Nc1nnc(-c2ccccc2O)cc1N1CCN(c2ccnc(C#CCNC(=O)c3cc4ncccn4n3)n2)CC1 tested on SMARCA4-HiBiT HeLa cells (protein which is expressed from the SMARCA4 gene) (Homo sapiens). 30 to 70%

Report inhibition at 1 µM for Nc1nnc(-c2ccccc2O)cc1N1CCN(c2ccnc(C#CCNC(=O)c3coc4ccccc34)n2)CC1 tested on SMARCA4-HiBiT HeLa cells (protein which is expressed from the SMARCA4 gene) (Homo sapiens). 30 to 70%

---

Molecular target: SMARCA4-HiBiT HeLa cells (protein which is expressed from the SMARCA4 gene) (Homo sapiens, UniProt P51532)
Construct: protein which is expressed from the SMARCA2 and SMARCA4 genes; host or cells: HeLa (SMARCA4-HiBiT engineered line)
Test: SMARCA4 degradation assay (HiBiT-fusion HeLa cell line, 24 h, luminescence)
Assay type: cell-based
Details: 1 μM
readoutName: inhibition at 1 µM

molecule	inhibition at 1 µM
C[C@H]1CCN(c2cc(-c3ccccc3O)nnc2N)CCN1c1ccc(C#N)c(C#CCN(C)CC(F)(F)F)n1	30 to 70%
C[C@@H]1CCN(c2cc(-c3ccccc3O)nnc2N)CCN1c1cc(C#CCN(C)C)ncc1F	< 30%
C[C@@H]1CCN(c2cc(-c3ccccc3O)nnc2N)CCN1c1ccc(C#N)c(C#CCN(C)C)n1	30 to 70%
CN(C)CC#Cc1cc(N2C3CCC2CN(c2cc(-c4ccccc4O)nnc2N)CC3)ccn1 (stereo not drawn)	> 70%
C[C@@H]1CCN(c2cc(-c3ccccc3O)nnc2N)CCN1c1ccnc(C#CCN2CC(F)(F)C2)c1	30 to 70%
CN(C)CC#Cc1cc(OC2CCN(c3cc(-c4ccccc4O)nnc3N)CC2)ccn1	< 30%
C[C@@H]1CCN(c2cc(-c3ccccc3O)nnc2N)CCN1c1ccnc(C#CCO)c1	30 to 70%
CC(C#Cc1nc(N2CCN(c3cc(-c4ccccc4O)nnc3N)CC[C@H]2C)ccc1C#N)N(C)C (stereo partly drawn)	< 30%
CN(C)CC#Cc1nc(N2CCCN(c3cc(-c4ccccc4O)nnc3N)CC2)ccc1C#N	> 70%
C[C@@H]1CCN(c2cc(-c3ccccc3O)nnc2N)CCN1c1ccnc(C#CCN2CCCC2=O)c1	> 70%

I have this molecule here, C[C@@H]1CCN(c2cc(-c3ccccc3O)nnc2N)CCN1c1ccnc(C#CC2CCC2)c1 , and I need its recorded inhibition at 1 µM. 30 to 70%

I have this molecule here, C[C@@H]1CCN(c2cc(-c3ccccc3O)nnc2N)CCN1c1ccnc(C#C[C@@H](C)O)c1 , and I need its recorded inhibition at 1 µM. > 70%

I have this molecule here, CC(C#Cc1cc(N2CCN(c3cc(-c4ccccc4O)nnc3N)CC[C@H]2C)ccn1)N(C)C (stereo partly drawn) , and I need its recorded inhibition at 1 µM. 30 to 70%

I have this molecule here, C[C@@H]1CCN(c2cc(-c3ccccc3O)nnc2N)CCN1c1cc(C#CCN2CCCCC2)ncc1F , and I need its recorded inhibition at 1 µM. 30 to 70%

I have this molecule here, C[C@@H]1CCN1CC#Cc1cc(N2CCN(c3cc(-c4ccccc4O)nnc3N)CC[C@H]2C)ccn1 , and I need its recorded inhibition at 1 µM. 30 to 70%

Numbers sourced from patent US20260265238A1.
